Source: paper PMC4466095

- targetOrTestSystem: FPR2 (Homo sapiens, UniProt P25090)
- Sequence (P25090 1-351): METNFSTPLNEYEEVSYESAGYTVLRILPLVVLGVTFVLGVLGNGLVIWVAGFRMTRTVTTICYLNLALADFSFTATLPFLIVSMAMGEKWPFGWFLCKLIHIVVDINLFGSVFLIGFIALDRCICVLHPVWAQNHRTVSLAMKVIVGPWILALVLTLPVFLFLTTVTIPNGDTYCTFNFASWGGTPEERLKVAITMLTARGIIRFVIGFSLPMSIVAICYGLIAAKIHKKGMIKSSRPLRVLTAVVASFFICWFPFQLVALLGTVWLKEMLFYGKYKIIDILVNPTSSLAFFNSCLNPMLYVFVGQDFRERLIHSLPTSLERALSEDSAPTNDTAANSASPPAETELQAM
- procedureDetails: Ca2+ mobilization in FPR2-transfected HL-60 cells
- Format: cell-based
testReadout: activation of FPR2 in FPR2-HL60 cells and in human neutrophils (in words)

Just so you know, measured activation of FPR2 in FPR2-HL60 cells and in human neutrophils (in words) for COc1ccc(NC(=O)N[C@H](Cc2c[nH]c3ccccc23)C(=O)NCC2(c3ccnc(F)c3)CCCCC2)cc1 [(R)-9b] came out at inactive

Just so you know, measured activation of FPR2 in FPR2-HL60 cells and in human neutrophils (in words) for COc1ccc(NC(=O)N[C@H](Cc2c[nH]c3ccccc23)C(=O)NCC2(c3ccc(F)cc3)CCCCC2)cc1 [(R)-9f] came out at inactive

Just so you know, measured activation of FPR2 in FPR2-HL60 cells and in human neutrophils (in words) for COc1ccc(NC(=O)N[C@@H](Cc2c[nH]c3ccccc23)C(=O)NCC2(c3ccnc(F)c3)CCCCC2)cc1 [(S)-9b] came out at active

Just so you know, measured activation of FPR2 in FPR2-HL60 cells and in human neutrophils (in words) for COc1ccc(NC(=O)N[C@@H](Cc2c[nH]c3ccccc23)C(=O)NCC2(c3ccc(F)cc3)CCCCC2)cc1 [(S)-9f] came out at active
